B1: KRT34 (parent)
chain: YQSYFKTIEELQQKILCAKAENAR

variants of: B1; experiment: protein stability index of a GFP-peptide fusion (GPS, HEK-293T) (PSI 1-6); higher = more stable; conditions: c terminus: a fixed tail appended;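 further: lentivirally expressed fusions sorted by FACS into six bins by GFP to DsRed ratio, PSI derived from sequencing read proportions per bin multiplied by bin number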
Attribute measured: protein stability index
One number for each entry.

Need protein stability index for each of these variants.
1. N22C
2. F5A
3. I15Y
4. Q12G
5. F5R
6. N22H
7. S3R

2.04
2.01
2.25
1.97
1.6
1.81
1.79
